The values you see were collected from paper PMC8752738.

Experiment: Pharmacokinetic studies
Type: in vivo, mouse
Conditions: male, mouse, plasma, po; ICR mice, p.o. 20 mg/kg
Protocol: Male ICR mice (18–20 g, n = 3 in each group) were randomly assigned to treatment groups. After 12-h of fasting, baseline blood was collected into a tube containing ethylenediaminetetraacetic acid (EDTA). […] The selected compounds' serum concentrations were determined by liquid chromatography/tandem mass spectrometry (LC–MS–MS). […]
measuredAttribute: Cmax (ng/mL)
Note: unit ng/mL is implicit; provide only the numeric part.

(Q) For the compound CC(C)=CCc1cc(C=CC(=O)O)cc(CC=C(C)C)c1O [APC, 3,5-diprenyl-4-hydroxycinnamic acid] , what Cmax is on record?
(A) 510

====

test: Tissue distribution assay; format: in vivo, mouse; details: male, C57/BL6, mouse, portal vein plasma, po, 20 mg/kg, po-portal vein plasma; 4 h after oral; Figure 5l, Y; read-out: average APC content 4 h after oral
measuredAttribute: concentration at 4 h (ng/g)
The figure you give is taken to be in ng/g; do not add the unit.

(Q) Given the compound CC(C)=CCc1cc(C=CC(=O)O)cc(CC=C(C)C)c1O [APC, 3,5-diprenyl-4-hydroxycinnamic acid] , what is its reported concentration at 4 h?
(A) 48.5

====

assay: Pharmacokinetic studies; type: in vivo, mouse; settings: male, mouse, plasma, iv; ICR mice, i.v. 2 mg/kg
measuredAttribute: clearance (mL/min/kg)
Respond with the bare value in mL/min/kg.

(Q) // lookup clearance for CC(C)=CCc1cc(C=CC(=O)O)cc(CC=C(C)C)c1O [APC, 3,5-diprenyl-4-hydroxycinnamic acid]
(A) 78

====

assay: Tissue distribution assay; format: in vivo, mouse; details: male, C57/BL6, mouse, brown fat, po, 20 mg/kg, BrownFat; 2H; oral; individual mice; read-out: APC content in tissue
measuredAttribute: concentration at 2 h (ng/g)
Number in ng/g, nothing else.

(Q) What value of concentration at 2 h has been recorded for this entry: CC(C)=CCc1cc(C=CC(=O)O)cc(CC=C(C)C)c1O [APC, 3,5-diprenyl-4-hydroxycinnamic acid]
(A) 11.1

====

assay: Tissue distribution assay; assay type: in vivo, mouse; details: male, C57/BL6, mouse, kidney, po, 20 mg/kg, kidney; 4 h after oral; Figure 5l, size of bubble; read-out: average APC content 4 h after oral
measuredAttribute: concentration at 4 h (ng/g)
Give the value, in units of ng/g, as a plain number.

(Q) # input compound: CC(C)=CCc1cc(C=CC(=O)O)cc(CC=C(C)C)c1O [APC, 3,5-diprenyl-4-hydroxycinnamic acid] ; wanted: its concentration at 4 h
(A) 16.4

====

test: Tissue distribution assay; format: in vivo, mouse; conditions: male, C57/BL6, mouse, liver, po, 20 mg/kg, Live (liver); 8H; oral; individual mice; read-out: APC content in tissue
measuredAttribute: concentration at 8 h (ng/g)
Answer in ng/g, number only, no unit symbol.

(Q) Need concentration at 8 h of CC(C)=CCc1cc(C=CC(=O)O)cc(CC=C(C)C)c1O [APC, 3,5-diprenyl-4-hydroxycinnamic acid] , thanks.
(A) 178

====

experiment: Pharmacokinetic studies; type: in vivo, mouse; conditions: male, ICR, mouse, plasma, po, 20 mg/kg, ICR mice, p.o. 20 mg/kg
measuredAttribute: half-life

(Q) // half-life lookup, key: CC(C)=CCc1cc(C=CC(=O)O)cc(CC=C(C)C)c1O [APC, 3,5-diprenyl-4-hydroxycinnamic acid]
(A) 2.11 h
